Assay system: T1, human CD14 antigen (B294801, histidine tagged) (Homo sapiens, UniProt P08571)
T1 construct: His; purchased Shanghai BaiYing Biotechnology Co., Ltd B294801 (Batch number 20200518A22)
T1 sequence (P08571 20-345): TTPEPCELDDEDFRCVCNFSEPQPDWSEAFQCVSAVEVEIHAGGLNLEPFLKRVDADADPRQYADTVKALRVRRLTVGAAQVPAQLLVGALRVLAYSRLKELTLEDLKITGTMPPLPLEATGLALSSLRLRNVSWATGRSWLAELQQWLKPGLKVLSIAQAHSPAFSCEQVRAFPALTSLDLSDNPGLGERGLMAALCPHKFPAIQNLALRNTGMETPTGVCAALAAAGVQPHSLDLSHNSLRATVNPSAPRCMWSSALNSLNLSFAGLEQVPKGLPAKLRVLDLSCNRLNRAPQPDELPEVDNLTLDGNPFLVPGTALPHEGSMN
Run description: Biacore 8K kinetic and affinity test of antibodies without PTM sites (Example 9)
Assay type: binding
Test conditions: Biacore 8K, analyte B294801 0.1953125-25 nM, capture conc. 1 μg/mL
Reported kon (1:1 binding) values for the following molecules.
Attribute measured: kon (1:1 binding)

molecule="MPDDAD002: D6DD3D014-derived antibody with PTM site removed; VL amino acid nos. 34, 35: SS (antibody, V domains shown) VH: QLQLQESGPGLVKPSETLSLTCTVSGGSISSDSAWNWIRQPPGKGLEWIGYISYSGSTSYNPSLKSRVTISRDTSKNQFSLKLSSVTAADTAVYYCVRGLRFAYWGQGTLVTVSS VL: DIQLTQSPSSLSASVGDRVTITCRASESVDSYVSSFLHWYQQKPGKAPKLLIYRASNLQSGVPSRFSGSGSRTDFTLTISSLQPEDVATYYCQQSNEDPYTFGQGTKLEIK" attribute_measured="kon (1:1 binding)" experimental_value="1.29e+06 M⁻¹ s⁻¹"
molecule="MPDDAD005: D6DD3D014-derived antibody with PTM site removed; VL amino acid nos. 34, 35: QS (antibody, V domains shown) VH: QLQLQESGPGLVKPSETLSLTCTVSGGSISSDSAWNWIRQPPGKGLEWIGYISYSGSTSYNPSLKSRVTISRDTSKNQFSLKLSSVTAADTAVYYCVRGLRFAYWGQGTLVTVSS VL: DIQLTQSPSSLSASVGDRVTITCRASESVDSYVQSFLHWYQQKPGKAPKLLIYRASNLQSGVPSRFSGSGSRTDFTLTISSLQPEDVATYYCQQSNEDPYTFGQGTKLEIK" attribute_measured="kon (1:1 binding)" experimental_value="1.11e+06 M⁻¹ s⁻¹"
